method: Half life in mouse at 2 mg/kg, iv
Type: ADME, organism-based
Parameters: dose 2 mg/kg, route intravenous
conditionLabel: in vivo
observedProperty: half-life (h)

a. C=CC[C@]1(O)CC[C@H]2[C@@H]3CCC4=CC(=O)CCC4=C3[C@@H](c3ccc(P(=O)(c4ccccc4)c4ccccc4)cc3)C[C@@]21C
b. CC#C[C@]1(O)CC[C@H]2[C@@H]3CCC4=CC(=O)CCC4=C3[C@@H](c3ccc(N(C)C)cc3)C[C@@]21C [MIFEPRISTONE]
Which value of half-life is numerically greater: that of a or that of b ? Provide the label of your selected option as the answer. b
(b: 4 h, a: 0.77 h)

---

method: Metabolic stability in rat microsomes assessed as half life
Format: ADME, Microsome
observedProperty: half-life

Reported half-life of C=CC[C@]1(O)CC[C@H]2[C@@H]3CCC4=CC(=O)CCC4=C3[C@@H](c3ccc(P(=O)(c4ccccc4)c4ccccc4)cc3)C[C@@]21C : > 30 min

---

method: Permeability across Caco-2 cells
Assay type: ADME, cell-based
conditionLabel: human, read-out: permeability
observedProperty: Papp (×10⁻⁶ cm/s)
Lab book: enter the figure in ×10⁻⁶ cm/s, no units written.

Entry under test: C=CC[C@]1(O)CC[C@H]2[C@@H]3CCC4=CC(=O)CCC4=C3[C@@H](c3ccc(P(=O)(c4ccccc4)c4ccccc4)cc3)C[C@@]21C . Its Papp was 2.6

// below: Papp requested for another compound
For this compound ( C=CC[C@]1(O)CC[C@H]2[C@@H]3CCC4=CC(=O)CCC4=C3[C@@H](c3ccc(P(=O)(OCC)OCC)cc3)C[C@@]21C ), measured Papp is 14.5

---

targetSystem: Progesterone receptor (Homo sapiens, UniProt P06401)
Sequence (P06401 whole entry): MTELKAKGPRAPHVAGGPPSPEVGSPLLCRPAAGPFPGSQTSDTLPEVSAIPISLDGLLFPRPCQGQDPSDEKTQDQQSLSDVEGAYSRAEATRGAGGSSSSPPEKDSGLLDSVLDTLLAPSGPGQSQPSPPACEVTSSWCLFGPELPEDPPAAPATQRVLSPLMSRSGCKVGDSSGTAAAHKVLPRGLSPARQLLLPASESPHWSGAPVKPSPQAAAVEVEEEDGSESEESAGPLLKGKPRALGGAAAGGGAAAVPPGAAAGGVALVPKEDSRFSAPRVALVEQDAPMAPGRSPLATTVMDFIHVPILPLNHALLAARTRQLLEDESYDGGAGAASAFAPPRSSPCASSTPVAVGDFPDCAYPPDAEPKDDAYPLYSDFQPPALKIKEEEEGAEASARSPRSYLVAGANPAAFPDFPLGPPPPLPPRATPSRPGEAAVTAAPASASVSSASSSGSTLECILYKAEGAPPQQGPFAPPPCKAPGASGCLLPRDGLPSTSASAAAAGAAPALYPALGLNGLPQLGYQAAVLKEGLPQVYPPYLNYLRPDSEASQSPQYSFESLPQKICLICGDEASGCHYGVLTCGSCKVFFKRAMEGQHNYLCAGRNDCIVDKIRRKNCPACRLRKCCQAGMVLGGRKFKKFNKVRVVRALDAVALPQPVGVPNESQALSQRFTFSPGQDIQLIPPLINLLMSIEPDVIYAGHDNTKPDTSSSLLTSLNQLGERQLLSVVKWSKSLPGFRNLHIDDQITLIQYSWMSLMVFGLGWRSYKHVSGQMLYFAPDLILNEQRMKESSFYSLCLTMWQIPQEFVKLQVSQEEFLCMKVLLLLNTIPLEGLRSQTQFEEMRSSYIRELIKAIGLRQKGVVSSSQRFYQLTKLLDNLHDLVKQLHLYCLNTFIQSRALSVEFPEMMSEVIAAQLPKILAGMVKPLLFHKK
method: Antagonist activity at progesterone receptor expressed in human T47 cells assessed as blockade of progesterone-induced alkaline phosphatase activity
observedProperty: IC50 (nM)
Quick reminder: number only, in nM, skip the unit.

Sample C=C1CCO[C@]12CC[C@H]1[C@@H]3CCC4=CC(=O)CCC4=C3[C@@H](c3ccc(P(C)(=O)OCC)cc3)C[C@@]12C (stereo partly drawn) , system: Progesterone receptor (Homo sapiens, UniProt P06401). Its IC50 is 1.6

Continue with the compound presented below.
# value of IC50, Progesterone receptor (Homo sapiens, UniProt P06401), item CC#C[C@]1(O)CC[C@H]2[C@@H]3CCC4=CC(=O)CCC4=C3[C@@H](c3ccc(P(=O)(OCC)OCC)cc3)C[C@@]21C = 141

---

method: Metabolic stability in dog microsomes assessed as half life
Format: ADME, Canis lupus familiaris, Microsome
observedProperty: half-life (min)
Give the number; min is assumed, so skip it.

What the record says about C=CC[C@]1(O)CC[C@H]2[C@@H]3CCC4=CC(=O)CCC4=C3[C@@H](c3ccc(P(=O)(c4ccccc4)c4ccccc4)cc3)C[C@@]21C : half-life is 21
